Test system: A431
Test: A431 cell proliferation assay (CellTiter Glo, 72 hours)
Type: cell-based
Settings: Homo sapiens, A-431, 72 h, cell proliferation, A431, 72 hours, Table 2; read-out: A431 IC50
Rule: measured IC50 below 1 µM gets rule met; anything equal to or greater than 1 µM gets rule not met.

given_smiles=CCc1cc(Nc2ncc(Br)c(Nc3ccc(-c4nn(C)c5ncccc45)cc3P(C)(C)=O)n2)c(OC)cc1N1CCC(N2CCN(C)CC2)CC1 label="rule not met"
given_smiles=COc1cc(Nc2ncc(Br)c(Nc3ccc(-c4ccc(C)cn4)cc3P(C)(C)=O)n2)c(C)cc1N1CCOCC1 label="rule not met"
given_smiles=COc1cc(Nc2ncc(Br)c(Nc3ccc(-c4nccs4)cc3P(C)(C)=O)n2)c(C)cc1N1CCC(N2CCN(C)CC2)CC1 label="rule met"
given_smiles=C#Cc1cnc(-c2ccc(Nc3nc(Nc4cc(OC)c(N5CCC(N6CCN(C)CC6)CC5)cc4C)ncc3Br)c(P(C)(C)=O)c2)cn1 label="rule met"
given_smiles=CCOc1cc(Nc2ncc(Br)c(Nc3ccc(-c4ccc(C)cn4)cc3P(C)(C)=O)n2)c(C)cc1N1CCOCC1 label="rule not met"
given_smiles=CCc1cc(Nc2ncc(Cl)c(Nc3ccc(-c4cnccn4)cc3P(C)(C)=O)n2)c(OC)cc1N1CCC(N2CCN(C)CC2)CC1 label="rule met"

FYI, the data here is from patent US20220402948A1.
